test system: PKC binding to recombinant RACK1; experiment: Overlay / overlay-extraction assay: inhibition of PKC binding to recombinant RACK1 by peptides; set-up: species or system rat; conditions: 10 μM peptide preincubated with PKC
endpoint label: inhibition of PKC binding to RACK1 (in words)

>  <substance>
peptide rV: synthetic peptide based on the corresponding region of RACK1 WD-40 repeat V (GYLNTVT)

>  <experimental result>
lesser inhibitory effect

$$$$
>  <substance>
peptide rI: synthetic peptide based on the corresponding region of RACK1 WD-40 repeat I (VTQIATT)

>  <experimental result>
effective inhibitors

$$$$
>  <substance>
rIV: synthetic peptide based on the corresponding region of RACK1 WD-40 repeat IV (VSCVRFS)

>  <experimental result>
lesser inhibitory effect

$$$$
>  <substance>
peptide rII: synthetic peptide based on the corresponding region of RACK1 WD-40 repeat II (FVSDVVI)

>  <experimental result>
effective inhibitors

$$$$

Source: patent US6342368B1
